# Procedure text: human hepatoma cell viability loss – ATP luminescence, cytotoxicity control for P. falciparum antimalarial project, primary screen (AID 2303);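 also: 0% = DMSO wells and 100% = digitonin-killed cells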
# Condition: HepG2 viability, 24-48 h, at 10 µM, stronger effect = higher value
Active and inactive are the calls of the source.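 The calls were made as follows: active = inhibition above 50%; inactive = the rest.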
Measured attribute: inhibition

>>> result("N#Cc1cccc(Nc2ncc3c(-c4cccc(NC(=O)Cc5cccc(Cl)c5)c4)c[nH]c3n2)c1")
"-1% (inactive)"
>>> result("OC(CNc1ccnc(Nc2cccc(Cl)c2)n1)c1ccccc1C(F)(F)F (stereo not given)")
"40% (inactive)"
>>> result("O=C(Nc1ccc(-c2cccc(-c3nc4ccc(C(F)(F)F)cc4[nH]3)c2)cc1)Nc1ccc(Cl)c(Cl)c1")
"42% (inactive)"
>>> result("Cc1cc(N[C@@H](Cc2ccccc2)C(=O)Nc2ccccc2)nc(NCCc2cccs2)n1")
"-1% (inactive)"
>>> result("COc1ccc(C=NNc2cc(C)nc3ccccc23)c2ccccc12")
"26% (inactive)"

###

Recorded growth inhibition by entry
# Procedure text: inhibition of 3D7 malaria parasite growth – strain 3D7 (AID 2306);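 also: 0% = DMSO wells and 100% = chloroquine plus artemisinin control wells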
# Condition: P. falciparum 3D7 erythrocytic growth, LDH absorbance, 72 h; at 2 µM; stronger effect = higher value
Measured attribute: growth inhibition (%)

>>> quantitative_result("CN(C)CCNC(=O)N1CCCN(c2ncnc3cc(-c4ccc(Cl)cc4)sc23)CC1")
98
>>> quantitative_result("Cc1nn(CC(C)C)c2sc(C(=O)Nc3nc(-c4ccccn4)cs3)cc12")
96
>>> quantitative_result("CCC1CN2CCc3c([nH]c4ccc(OC)cc34)[C@@H]2C[C@@H]1CC1NCCc2cc(OC)c(OC)cc21 (some centres undefined)")
100
>>> quantitative_result("O=C(Nc1cccc(-c2ccc(-c3nc4ccc(C(F)(F)F)cc4[nH]3)cc2)c1)c1ccoc1")
98
>>> quantitative_result("CCCCCCN(CCCCCC)CC(O)c1cc(-c2ccc(Cl)cc2)nc2c(C)cc(C)cc12 (centres undefined)")
98
>>> quantitative_result("COc1cccc(Cc2c(C)nc3nc(N)nc(N)c3c2C)c1")
95
>>> quantitative_result("Fc1ccc([C@H]2N=C(SCCSC3=N[C@H](c4ccc(F)cc4)[C@H](c4ccc(F)cc4)N3)N[C@H]2c2ccc(F)cc2)cc1")
99
>>> quantitative_result("CCN(CC)C(=NCCCCCCN=C(/N=C(/N)Nc1ccc(C)cc1)N(CC)CC)/N=C(/N)Nc1ccc(C)cc1")
97
>>> quantitative_result("O=C(Nc1ccc(F)c(C(F)(F)F)c1)NC1CCN(CCCCCNC(=O)[C@@H]2C[C@H]2c2ccc(Cl)c(Cl)c2)CC1")
100

###

# Procedure text: antimalarial activity against Dd2 strain (AID 2302);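 also: 0% = DMSO untreated growth and 100% = chloroquine plus artemisinin killed control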
# Condition: P. falciparum Dd2 in RBCs, LDH growth readout, 72 h; at 2 µM; stronger effect = higher value
# binarize growth inhibition: threshold 50% inclusive, high side yes (1), low side no (0)

>>> discrete_label("CC(=O)Nc1cccc(C(=O)Nc2cccc(-c3cccc(-c4nc5ccc(F)cc5[nH]4)c3)c2)c1")
"no (0)"
>>> discrete_label("COc1ccc(NC(=O)Nc2ccc(C)c(-c3ccc(C(=O)NCCN4CCCC4)cc3)c2)cc1")
"no (0)"
>>> discrete_label("O=C(Nc1ccc(-c2ccc(-c3nc4ccccc4[nH]3)s2)cc1)Nc1ccc(F)c(F)c1F")
"yes (1)"
>>> discrete_label("CCCC(=O)Nc1ccc(Nc2nc(C)cc(N3CCCC3)n2)cc1")
"no (0)"
>>> discrete_label("Cc1[nH]nc2cc(Nc3ccnc(Nc4cccc(CN5CCOCC5)c4)n3)ccc12")
"no (0)"
>>> discrete_label("COc1ccc(CN2CCCC(C(=O)c3ccc(C(F)(F)F)cc3)C2)c(O)c1 (centres undefined)")
"yes (1)"
>>> discrete_label("Cc1cccc(Nc2nccc(NCC(O)c3cccc(C(F)(F)F)c3)n2)c1 (centres undefined)")
"yes (1)"
>>> discrete_label("COc1ccc2nccc(N3C[C@H]4C[C@@H]3CN4CCNCc3ccc4c(n3)NC(=O)CS4)c2n1")
"no (0)"
>>> discrete_label("N#Cc1nc2ccc(OCCN(Cc3ccccc3C(F)(F)F)c3ccc(C#N)c(C(F)(F)F)c3)cc2s1")
"no (0)"

###

# Procedure text: human hepatoma cell viability loss – ATP luminescence, cytotoxicity control for P. falciparum antimalarial project, primary screen (AID 2303);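 also: 0% = DMSO wells and 100% = digitonin-killed cells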
# Condition: HepG2 viability, 24-48 h, at 10 µM, stronger effect = higher value
Activity calls are given as the source filed them.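 How the source made its calls: active means inhibition above 50%; inactive means the rest.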
Recorded inhibition by entry
Measured attribute: inhibition

>>> result("COCCN1CCN(Cc2ccc(-c3ccc(-c4nc5ccc(F)cc5[nH]4)cc3)cc2)CC1")
"25% (inactive)"
>>> result("O=C(/C=C/c1ccc(Cl)c(Cl)c1)NCCCCCN1CCCN(C(=O)Nc2ccc(F)c(F)c2)CC1")
"26% (inactive)"
>>> result("Cc1ccc(Nc2nc3cc(Nc4ccnc(Nc5ccc(CS(C)(=O)=O)cc5)n4)ccc3o2)cc1")
"54% (active)"
>>> result("COc1cc(Cl)c(C)cc1N(Cc1ccccc1-c1ccccc1)S(=O)(=O)c1ccc(C(F)(F)F)cc1")
"23% (inactive)"
>>> result("O=C(Nc1ccc(C(F)(F)F)cc1)NC1CCN(CCCCCNC(=O)[C@@H]2C[C@H]2c2ccc(Cl)c(Cl)c2)CC1")
"41% (inactive)"
>>> result("CC(C)CNC(=S)N1CCCN(c2nc3ccc(Cl)cc3s2)CC1")
"28% (inactive)"
>>> result("COc1ccc(NC(=O)CCNc2cc(C)nc(NCc3ccccc3C)n2)cc1")
"7% (inactive)"
>>> result("COc1ccc(Br)cc1C1Nc2ccc3ccccc3c2C2=C1C(=O)CC(c1ccccc1)C2 (centres undefined)")
"25% (inactive)"
>>> result("Cc1cc(=O)c(-c2ccc(OCCSc3ccc(C(F)(F)F)cn3)cc2)c(C)[nH]1")
"2% (inactive)"
>>> result("Cc1cccc(CNc2nc(C)cc(NCCC(=O)Nc3ccccc3)n2)c1")
"15% (inactive)"
>>> result("COc1ccc2nccc([C@@H](O)CN3CCC(NCc4nc5cc(F)ccc5o4)CC3)c2c1")
"14% (inactive)"
>>> result("O=S1N=C(NCCCN(Cc2cccs2)c2ccccn2)C(NCc2ccccc2)=N1 (centres undefined)")
"10% (inactive)"
>>> result("Nc1cccc(CNCc2ccc(-c3ccc(-c4nc5ccccc5[nH]4)s3)cc2)c1")
"12% (inactive)"
>>> result("Cc1nccc2c(NC(=O)N[C@@H]3CCN(c4ncc(C(F)(F)F)cc4Br)C3)cccc12")
"21% (inactive)"
>>> result("COc1ccc(C(=O)C2CCN(CCCCNC(=O)c3ccc(NC(=O)c4cc(Cl)cc(Cl)c4)cc3)CC2)cc1")
"35% (inactive)"
>>> result("CCCCN1CCN(CC(O)CNC(=O)Nc2ccc(Cl)cc2)CC1 (centres undefined)")
"17% (inactive)"
>>> result("CC(C)[C@H](NC(=O)c1ccc(O)c(-c2ccc(Cl)c(Cl)c2)c1)C(=O)NCCN(C)C")
"-4% (inactive)"
>>> result("COc1cc2nc(N3CCC(CNC(=O)c4ccc(-c5ccc(-c6noc(C)n6)cc5C)cc4)CC3)nc(N)c2cc1OC")
"99% (active)"
>>> result("Cc1cc(N[C@@H](Cc2ccccc2)C(=O)NCCOc2ccccc2)nc(Nc2ccccc2)n1")
"2% (inactive)"

###

# Procedure text: antimalarial activity against Dd2 strain (AID 2302);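 also: 0% = DMSO untreated growth and 100% = chloroquine plus artemisinin killed control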
# Condition: P. falciparum Dd2 in RBCs, LDH growth readout, 72 h; at 2 µM; stronger effect = higher value
# binarize growth inhibition: threshold 60% inclusive, high side Criterion met, low side Criterion not met

>>> discrete_label("COc1cccc(C(=O)OC2=C3CCC(=O)C3(C)CCC2=O)c1 (stereo not given)")
"Criterion not met"
>>> discrete_label("CCOc1ccccc1C(=O)N1CCc2cc3nccc(N4CCN5CCC[C@H]5C4)c3cc21")
"Criterion not met"
>>> discrete_label("OC(COCc1ccc(-c2ccccc2)cc1)CN1CCCCC1 (stereo not given)")
"Criterion met"
>>> discrete_label("CCOc1ccc(C2CCN(CCN3CCC(NC(=O)c4ccc(-c5ccc(C(F)(F)F)cc5)cc4)CC3)CC2)c(OCC2CC2)c1")
"Criterion met"
>>> discrete_label("Cc1ccc(Cc2c(N)nc3nc(N)nc(N)c3c2C)cc1")
"Criterion not met"

###

# Procedure text: antimalarial activity against Dd2 strain (AID 2302);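 also: 0% = DMSO untreated growth and 100% = chloroquine plus artemisinin killed control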
# Condition: P. falciparum Dd2 in RBCs, LDH growth readout, 72 h; at 2 µM; stronger effect = higher value
# binarize growth inhibition: threshold 70% inclusive, high side Criterion met, low side Criterion not met

>>> discrete_label("O=c1cc(NCCCNC(c2ccccc2)c2ccc(Cl)c(Cl)c2)[nH]c2ccccc12 (centres undefined)")
"Criterion met"
>>> discrete_label("COc1ccc(Nc2nccc(-c3ccc(NC(=O)c4cc5cc(F)ccc5[nH]4)cc3)n2)cc1")
"Criterion not met"
>>> discrete_label("COc1cccc2cc(C(=O)N[C@@H](CC(C)C)C(=O)N[C@H](/C=N/N3CCCC3=O)Cc3ccccc3)oc12")
"Criterion met"
>>> discrete_label("CN1CCN(c2ccnc3ccc(NC(=O)Nc4ccccc4Br)cc23)CC1")
"Criterion met"
>>> discrete_label("Cc1cccc(-c2ccc3c(c2)CC(NCc2cccc(-n4ccnc4)c2)C3)c1 (centres undefined)")
"Criterion not met"
>>> discrete_label("O=C(Nc1ccc(S(=O)(=O)N2CCOCC2)cc1)c1cc(-c2cc(Cl)ccc2O)n[nH]1")
"Criterion not met"
>>> discrete_label("Cc1cc(N[C@@H](CC(C)C)C(=O)NCc2cccc(F)c2)nc(NCCc2ccc(F)cc2)n1")
"Criterion not met"
>>> discrete_label("O=C(Nc1ccc(OC(F)(F)F)cc1)NC1CCN(c2ccnc3ccccc23)C1 (centres undefined)")
"Criterion met"
>>> discrete_label("Cc1cc(NN=Cc2ccccc2Cl)c2cc(F)ccc2n1")
"Criterion not met"
>>> discrete_label("CC(C)(CNC(=O)/C=C/c1ccc(Cl)c(Cl)c1)CNc1cc(=O)c2ccccc2[nH]1")
"Criterion not met"
>>> discrete_label("COC(=O)c1cccc(NC(=O)NCCNc2ccnc(Nc3ccc(F)cc3)n2)c1")
"Criterion not met"
>>> discrete_label("COc1ccc(-c2cccc(NC(=O)c3ccccc3)c2)cc1CN1CCCN(C)CC1")
"Criterion not met"
>>> discrete_label("CCc1cn2c3c(cc(C(=O)N[C@@H](Cc4ccccc4)[C@H](O)CNCc4ccc(C)cc4)cc13)N(C)S(=O)(=O)CC2")
"Criterion met"
>>> discrete_label("CCNc1cc(C(=O)N[C@@H](Cc2ccccc2)[C@H](O)CNC(C)(C)Cc2cccc(Cl)c2)cc(N2CCCCS2(=O)=O)c1")
"Criterion met"
>>> discrete_label("O=C(NCCN1CCCCC1)c1ccc(CNC(=O)c2ccc(O)c(-c3cccc(C(F)(F)F)c3)c2)cc1")
"Criterion not met"
>>> discrete_label("CCOC(=O)N1NC(=O)N(c2ccccc2)C1(c1ccccc1)c1ccccc1")
"Criterion met"
>>> discrete_label("COc1cc(F)c2nccc([C@@H](O)CN3CC[C@H](NCc4ccc5c(n4)NC(=O)CS5)[C@H](F)C3)c2c1")
"Criterion met"
>>> discrete_label("Cc1ccc(-c2ccc(NC(=O)N3CCc4cc(Br)c(N5CCN(C)CC5)cc43)cc2)cn1")
"Criterion not met"
>>> discrete_label("Cc1nc2nc(N)nc(N)c2c(C)c1Cc1ccc(C(F)(F)F)cc1")
"Criterion not met"
